Data origin, for the record: ChEMBL document CHEMBL3751728

The compounds below have reported IC50 for Epidermal growth factor receptor (Homo sapiens, UniProt P00533, L858R/T790M).
readoutName: IC50 (nM)

# example entries with known answers
inputSmiles	readoutName	measValue
C=CC(=O)Nc1cccc(-n2c(=O)ccc3cnc(Nc4ccc(N5CCN(C)CC5)cc4OC)nc32)c1	IC50	0.5
C=CC(=O)Nc1cccc(-n2c(=O)cc(C(C)C)c3cnc(Nc4ccc(N5CCN(C)CC5)cc4OC)nc32)c1	IC50	94
C=CC(=O)Nc1cccc(-n2c(=O)c(-c3ccccc3)c(C)c3cnc(Nc4ccc(N5CCN(C)CC5)cc4OC)nc32)c1	IC50	1.6
C=CC(=O)Nc1cccc(-n2c(=O)cc(CCC)c3cnc(Nc4ccc(N5CCN(C)CC5)cc4OC)nc32)c1	IC50	17.8

(I) C=CC(=O)Nc1cccc(-n2c(=O)cc(C(F)(F)F)c3cnc(Nc4ccc(N5CCN(C)CC5)cc4OC)nc32)c1
(II) C=CC(=O)Nc1cccc(-n2c(=O)cc(CC)c3cnc(Nc4ccc(N5CCN(C)CC5)cc4OC)nc32)c1
(III) C=CC(=O)Nc1cccc(-n2c(=O)c(C)cc3cnc(Nc4ccc(N5CCN(C)CC5)cc4OC)nc32)c1
Query string: Rank the items in ascending order with respect to IC50. Give the labels in the order specified.
Result string: III, II, I

---

- Tested on: NCI-H1975
- method: Cytotoxicity against human NCI-H1975 harboring EGFR L858R/T790M mutant after 72 hrs by SRB assay
- Format: functional, cell-based
- studyConditions: NCI-H1975, 72 h
readoutName: IC50 (nM)
// units = nM; emit number, no label

Query string: What value of IC50 has been reported for the following molecule? C=CC(=O)Nc1cccc(-n2c(=O)cc(C)c3cnc(Nc4ccc(N5CCN(C)CC5)cc4OC)nc32)c1
Result string: 2.8

---

- Tested on: A-431
- method: Cytotoxicity against human A431 cells overexpressing wild type EGFR after 72 hrs by SRB assay
- Format: cell-based
- studyConditions: A-431, 72 h
readoutName: IC50 (nM)
Note: unit nM is implicit; provide only the numeric part.

Query string: I have this compound here, C=CC(=O)Nc1cccc(-n2c(=O)cc(C)c3cnc(Nc4ccc(N5CCN(C)CC5)cc4OC)nc32)c1 , and I need its recorded IC50.
Result string: 870

---

- systemUnderTest: Epidermal growth factor receptor (Homo sapiens)
pKd: −log10 of the molar value.
readoutName: pKd

inputSmiles	pKd
C=CC(=O)Nc1cccc(-n2c(=O)c(-c3ccccc3)cc3cnc(Nc4ccc(N5CCN(C)CC5)cc4OC)nc32)c1	8.60

(I) C=CC(=O)Nc1cccc(-n2c(=O)cc(C3CC3)c3cnc(Nc4ccc(N5CCN(C)CC5)cc4OC)nc32)c1
(II) C=CC(=O)Nc1cccc(-n2c(=O)cc(C)c3cnc(Nc4ccc(N5CCN(C)CC5)cc4OCC)nc32)c1
(III) C=CC(=O)Nc1cccc(-n2c(=O)c(Cc3ccccc3)cc3cnc(Nc4ccc(N5CCN(C)CC5)cc4OC)nc32)c1
(IV) C=CC(=O)Nc1cccc(-n2c(=O)cc(CC)c3cnc(Nc4ccc(N5CCN(C)CC5)cc4OC)nc32)c1
Query string: Please put the entries in order of rising pKd. Note for the reader: the ranking is given by listing the labels in the order requested.
Result string: II, IV, I, III
(II: 6.46, IV: 6.85, I: 7.24, III: 8.92)

---

- systemUnderTest: Epidermal growth factor receptor (Homo sapiens, UniProt P00533, L858R/T790M)
- Sequence (P00533 25-1210 T790M/L858R limits assumed): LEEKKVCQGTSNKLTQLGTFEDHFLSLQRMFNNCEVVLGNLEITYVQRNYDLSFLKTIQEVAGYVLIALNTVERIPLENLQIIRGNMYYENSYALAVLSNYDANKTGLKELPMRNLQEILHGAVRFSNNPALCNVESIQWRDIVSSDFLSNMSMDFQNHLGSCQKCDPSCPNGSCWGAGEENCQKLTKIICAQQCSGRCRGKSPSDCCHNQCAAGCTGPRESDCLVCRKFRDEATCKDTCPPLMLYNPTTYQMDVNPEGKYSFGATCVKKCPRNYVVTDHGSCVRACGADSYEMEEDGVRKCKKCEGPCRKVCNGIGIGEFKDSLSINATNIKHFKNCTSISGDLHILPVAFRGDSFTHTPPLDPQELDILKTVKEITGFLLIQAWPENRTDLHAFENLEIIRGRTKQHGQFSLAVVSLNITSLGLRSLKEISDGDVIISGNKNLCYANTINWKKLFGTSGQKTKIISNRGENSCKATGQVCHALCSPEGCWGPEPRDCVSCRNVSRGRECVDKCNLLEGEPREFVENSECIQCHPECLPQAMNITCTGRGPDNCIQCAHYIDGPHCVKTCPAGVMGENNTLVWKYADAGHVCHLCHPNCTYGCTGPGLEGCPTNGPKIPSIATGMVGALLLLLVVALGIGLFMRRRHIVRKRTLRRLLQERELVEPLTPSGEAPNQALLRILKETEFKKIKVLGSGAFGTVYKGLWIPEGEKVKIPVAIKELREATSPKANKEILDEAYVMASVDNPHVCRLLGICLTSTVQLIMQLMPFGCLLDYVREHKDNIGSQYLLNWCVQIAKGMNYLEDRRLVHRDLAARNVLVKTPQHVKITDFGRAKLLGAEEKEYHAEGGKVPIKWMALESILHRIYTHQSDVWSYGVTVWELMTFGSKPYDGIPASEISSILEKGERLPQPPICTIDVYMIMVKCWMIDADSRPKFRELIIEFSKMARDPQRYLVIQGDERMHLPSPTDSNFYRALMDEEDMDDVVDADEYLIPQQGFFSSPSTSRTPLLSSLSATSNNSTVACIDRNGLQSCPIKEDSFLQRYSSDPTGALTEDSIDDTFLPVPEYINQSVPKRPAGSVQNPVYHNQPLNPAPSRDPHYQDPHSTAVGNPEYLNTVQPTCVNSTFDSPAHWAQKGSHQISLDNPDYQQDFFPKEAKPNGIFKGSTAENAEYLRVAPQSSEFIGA
readoutName: Kd (nM)

(1) C=CC(=O)Nc1cccc(-n2c(=O)ccc3cnc(Nc4ccc(N5CCN(C)CC5)cc4OC)nc32)c1
(2) C=CC(=O)Nc1cccc(-n2c(=O)c(-c3ccccc3)c(C)c3cnc(Nc4ccc(N5CCN(C)CC5)cc4OC)nc32)c1
Query string: Of 1 and 2 , whose reported Kd is numerically smaller? Please reply using the label of the selected record.
Result string: 1

---

- systemUnderTest: Epidermal growth factor receptor (Homo sapiens, UniProt P00533, L858R/T790M)
pKd: −log10 of the molar value.
readoutName: pKd

See these solved cases before continuing.
inputSmiles	pKd
C=CC(=O)Nc1cccc(-n2c(=O)cc(CC)c3cnc(Nc4ccc(N5CCN(C)CC5)cc4OC)nc32)c1	8.74
C=CC(=O)Nc1cccc(-n2c(=O)cc(C3CC3)c3cnc(Nc4ccc(N5CCN(C)CC5)cc4OC)nc32)c1	8.66
C=CC(=O)Nc1cccc(-n2c(=O)cc(C)c3cnc(Nc4ccc(N5CCN(C)CC5)cc4OC)nc32)c1	9.59
C=CC(=O)Nc1cccc(-n2c(=O)c(Cc3ccccc3)cc3cnc(Nc4ccc(N5CCN(C)CC5)cc4OC)nc32)c1	9.30
C=CC(=O)Nc1cccc(-n2c(=O)cc(C)c3cnc(Nc4ccc(N5CCN(C)CC5)cc4OCC)nc32)c1	8.92

(a) C=CC(=O)Nc1cccc(-n2c(=O)c(-c3ccccc3)cc3cnc(Nc4ccc(N5CCN(C)CC5)cc4OC)nc32)c1
(b) C=CC(=O)Nc1cccc(-n2c(=O)c(C)cc3cnc(Nc4ccc(N5CCN(C)CC5)cc4OC)nc32)c1
Query string: Could you check which of a and b has a smaller value for pKd? Reply briefly: the label of your chosen item.
Result string: b
(b: 9.06, a: 9.30)
